meta.source: patent US11071788B2

Reported Papp (B-A) values for a set of compounds
- Tested on: Caco-2 cells
- assay_info: Cell permeability flux assay using Caco-2 cells
- Assay type: in vitro ADME
- test_context: Caco-2, 2 hours incubation
Only the number, expressed in ×10⁻⁶ cm/s, is required.

Request: Which measured Papp (B-A) value corresponds to CC(C)(C)[C@H](c1cc(-c2cc(F)ccc2F)cn1Cc1ccccc1)N(CC[C@H](N)C(=O)N[C@H](CNC(=O)CNC(=O)CC(SC[C@H](N)C(=O)O)C(=O)O)C(=O)O)C(=O)CO (stereo partly shown) [Example M3] ?
Result: 0.14

Request: Another compound to check: CC(C)(C)[C@H](c1cc(-c2cc(F)ccc2F)cn1Cc1ccccc1)N(CC[C@H](N)C(=O)NCCNC(=O)CNC(=O)CC(SC[C@H](N)C(=O)O)C(=O)O)C(=O)CO (stereo partly shown) [Example M2]
Result: 0.48

Request: Another compound to check: CC(C)(C)[C@H](c1cc(-c2cc(F)ccc2F)cn1Cc1ccccc1)N(CC[C@H](N)C(=O)NCCOCCNC(=O)CC(SC[C@H](N)C(=O)O)C(=O)O)C(=O)CO (stereo partly shown) [Example M5]
Result: 2.03

Request: Another compound to check: CC(C)(C)[C@H](c1cc(-c2cc(F)ccc2F)cn1Cc1ccccc1)N(CCCN)C(=O)CSC[C@H](NC(=O)CCOCCOCCOCCOCCNC(=O)CNC(=O)CC(SC[C@@H](N)C(=O)O)C(=O)O)C(=O)O (stereo partly shown) [Example M22]
Result: 0.09

====

- Tested on: NCI-H292
- assay_info: Cytotoxicity MTT assay, NCI-H292
- Assay type: cell-based, human
- test_context: Homo sapiens, NCI-H292
- From the text: Table 2 below lists the IC50 values of representative working examples from the assay described and the corresponding cytotoxicity data (MTT assay).
attribute_measured: IC50 (nM)
Only the number, expressed in nM, is required.

Request: Which measured IC50 value corresponds to CC(C)(C)[C@H](c1cc(-c2cc(F)ccc2F)cn1Cc1ccccc1)N(CCCN)C(=O)CO ?
Result: 0.774

====

- measured_on: motor domain of the human kinesin spindle protein KSP/Eg5 (Homo sapiens (Human))
- Sequence (P52732 18-359): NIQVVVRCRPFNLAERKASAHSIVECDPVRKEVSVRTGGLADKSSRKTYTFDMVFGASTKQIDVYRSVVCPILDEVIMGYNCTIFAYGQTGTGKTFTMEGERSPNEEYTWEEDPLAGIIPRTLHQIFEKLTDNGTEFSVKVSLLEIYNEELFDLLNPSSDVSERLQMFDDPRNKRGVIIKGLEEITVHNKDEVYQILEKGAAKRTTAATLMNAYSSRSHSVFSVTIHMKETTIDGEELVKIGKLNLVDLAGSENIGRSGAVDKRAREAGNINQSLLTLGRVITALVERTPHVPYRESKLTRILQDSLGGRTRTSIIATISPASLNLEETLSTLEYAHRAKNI
- assay_info: Inhibition of the kinesin spindle protein KSP/Eg5 (ATPase, malachite green)
- test_context: 10 nM KSP motor domain, microtubuli, 500 μM ATP, 2 h RT
attribute_measured: IC50 (nM)
Only the number, expressed in nM, is required.

Example cases with answers are listed next.
{"compound": "CC(C)(C)[C@H](c1cc(-c2cc(F)ccc2F)cn1Cc1ccccc1)N(CCCN)C(=O)CSC[C@H](NC(=O)CCOCCOCCOCCOCCNC(=O)CCNC(=O)CC(SC[C@H](N)C(=O)O)C(=O)O)C(=O)O (stereo partly drawn)", "IC50 [nM]": 0.47}
{"compound": "CC(C)(C)[C@H](c1cc(-c2cc(F)ccc2F)cn1Cc1ccccc1)N(CC[C@H](N)C(=O)NCCOCCNC(=O)CC(SC[C@H](N)C(=O)O)C(=O)O)C(=O)CO (stereo partly drawn)", "IC50 [nM]": 0.457}

With those in mind, consider the next compound.
Request: Which measured IC50 value corresponds to CC(C)(C)[C@H](c1cc(-c2cc(F)ccc2F)cn1Cc1ccccc1)N(CC[C@H](N)C(=O)N[C@H](CNC(=O)CNC(=O)CC(SC[C@H](N)C(=O)O)C(=O)O)C(=O)O)C(=O)CO (stereo partly drawn) ?
Result: 1.52
